Recorded THP-1 IC50 by entry
Target: T1, TNFR1 on THP-1 Lucia NF-κB cells (UniProt P19438 30-455, limits assumed)
T1 sequence (looked up): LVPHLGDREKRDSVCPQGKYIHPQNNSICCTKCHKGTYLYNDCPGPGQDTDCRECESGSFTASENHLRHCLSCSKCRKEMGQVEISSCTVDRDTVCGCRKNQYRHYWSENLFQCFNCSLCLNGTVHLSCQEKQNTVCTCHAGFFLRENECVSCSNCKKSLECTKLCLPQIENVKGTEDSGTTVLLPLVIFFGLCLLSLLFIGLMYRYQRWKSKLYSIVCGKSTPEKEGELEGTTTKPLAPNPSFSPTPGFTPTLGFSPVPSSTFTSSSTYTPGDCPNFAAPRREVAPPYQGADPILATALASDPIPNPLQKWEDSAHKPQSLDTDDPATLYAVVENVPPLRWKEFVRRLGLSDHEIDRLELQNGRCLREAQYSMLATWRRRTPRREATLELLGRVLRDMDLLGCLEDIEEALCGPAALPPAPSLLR
Assay: cell-based or functional assay
Bridge positions count the residues as written; N and C are the ends. Square brackets hold non-standard residues; d marks the D form. Trp(βS-Me,7-OMe) = COc1cccc2c([C@H](C)[C@H](N)C(=O)O)c[nH]c12; Trp(βS-Me) = C[C@@H](c1c[nH]c2ccccc12)[C@H](N)C(=O)O; Trp(7-Cl) = N[C@@H](Cc1c[nH]c2c(Cl)cccc12)C(=O)O; Phe(4-COOH) = N[C@@H](Cc1ccc(C(=O)O)cc1)C(=O)O; Trp(7-aza) = N[C@@H](Cc1c[nH]c2ncccc12)C(=O)O; Phe(4-CH2NH2) = NCc1ccc(C[C@H](N)C(=O)O)cc1; αMeW = C[C@](N)(Cc1c[nH]c2ccccc12)C(=O)O; 4Pal = N[C@@H](Cc1ccncc1)C(=O)O; NMeE = CN[C@@H](CCC(=O)O)C(=O)O; αMeS = C[C@](N)(CO)C(=O)O; Nle = CCCC[C@H](N)C(=O)O; Pip2c = not defined here; SBrPh = not defined here; Dap = NC[C@H](N)C(=O)O; Sar = CNCC(=O)O
MEASURED PARAMETER: THP-1 IC50 (nM)

binder="{CH2CO}-[Nle]H[Pip2c][Trp(7-aza)][NMeE]N[4Pal][Trp(7-Cl)][αMeS][Phe(4-COOH)]Y[Sar][Trp(βS-Me,7-OMe)]C-NH2 (thioether N-14; reading uncertain; also: printed as cyclo(ClAc-Nle-H-Pip2c-Trp7az-NMeE-N-4Pal-Trp7Cl-aMeS-Phe4COOH-Y-Sar-SbMeW7OMe-C)-NH2) [SEQ ID NO. 264]" measured_parameter="THP-1 IC50" endpoint_unit=nM result_number=8.1
binder="{CH2CO}-[LysN3][4Pal][Dap][Trp(βS-Me)][dP]N[4Pal][Trp(7-Cl)][αMeS][Phe(4-COOH)][Phe(4-CH2NH2)][Sar][αMeW]C-NH2 (thioether N-14) [SEQ ID NO. 245]" measured_parameter="THP-1 IC50" endpoint_unit=nM result_number=9.4
binder="SBrPh-[Nle][4Pal]S[Trp(7-aza)][NMeE]N[4Pal][Trp(7-Cl)][αMeS][Phe(4-COOH)]Y[Sar][αMeW]C-NH2 (thioether N-14; reading uncertain; also: printed as cyclo(SBrPh-Nle-4Pal-S-Trp7az-NMeE-N-4Pal-Trp7Cl-aMeS-Phe4COOH-Y-Sar-aMeW-C)-NH2) [SEQ ID NO. 274]" measured_parameter="THP-1 IC50" endpoint_unit=nM result_number=3.2

The reported measurements were obtained from patent US20240287138A1.
